# TEST_DETAILS: self-splicing fitness, log relative to wild type (ln ratio); higher = more splicing; Tetrahymena group I intron in knt gene, E. coli kanamycin selection, DiMSum; sequences stand for … in CUCUCU…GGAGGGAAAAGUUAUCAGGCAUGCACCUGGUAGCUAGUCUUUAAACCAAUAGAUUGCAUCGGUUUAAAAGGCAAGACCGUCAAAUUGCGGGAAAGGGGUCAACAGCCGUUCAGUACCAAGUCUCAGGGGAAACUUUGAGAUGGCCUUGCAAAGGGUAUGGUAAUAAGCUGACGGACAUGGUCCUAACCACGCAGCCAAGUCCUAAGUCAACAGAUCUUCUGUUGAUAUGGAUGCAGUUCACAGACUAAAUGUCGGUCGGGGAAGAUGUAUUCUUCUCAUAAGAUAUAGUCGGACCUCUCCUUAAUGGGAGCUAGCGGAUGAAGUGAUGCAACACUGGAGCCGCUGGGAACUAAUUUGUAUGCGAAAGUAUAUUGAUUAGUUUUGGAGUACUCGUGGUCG;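 also: selection with 25 µg/mL kanamycin versus none on LB agar overnight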
# CONDITION_SET: 37 °C
# label = fulfilled if self-splicing fitness (ln) >= -0.8 else not fulfilled

- SEQUENCE_ENTRY: "GAGGAGCAAUAUUACGAAGA"
  LABEL_CLASS: "not fulfilled"
- SEQUENCE_ENTRY: "UCACAGCAAUAUUACGAAUC"
  LABEL_CLASS: "not fulfilled"
- SEQUENCE_ENTRY: "AUCCAGCAAUAUUACGGUUG"
  LABEL_CLASS: "not fulfilled"
- SEQUENCE_ENTRY: "UUGGAGCAAUAUUACGUUCU"
  LABEL_CLASS: "not fulfilled"
- SEQUENCE_ENTRY: "ACAGAGCAAUAUUACGUCGA"
  LABEL_CLASS: "not fulfilled"
- SEQUENCE_ENTRY: "CAGUAGCAAUAUUACGUAGU"
  LABEL_CLASS: "not fulfilled"
- SEQUENCE_ENTRY: "AAUUAGCAAUAUUACGAAGU"
  LABEL_CLASS: "not fulfilled"
- SEQUENCE_ENTRY: "CUUAAGCAAUAUUACGUCUG"
  LABEL_CLASS: "fulfilled"
- SEQUENCE_ENTRY: "AAUGAGCAAUAUUACGGCCC"
  LABEL_CLASS: "not fulfilled"
- SEQUENCE_ENTRY: "UGAGAGCAAUAUUACGUAAA"
  LABEL_CLASS: "not fulfilled"
- SEQUENCE_ENTRY: "ACCAAGCAAUAUUACGGUUC"
  LABEL_CLASS: "not fulfilled"
- SEQUENCE_ENTRY: "UACAAGCAAUAUUACGACGU"
  LABEL_CLASS: "fulfilled"
- SEQUENCE_ENTRY: "AUACAGCAAUAUUACGCCUC"
  LABEL_CLASS: "not fulfilled"
- SEQUENCE_ENTRY: "ACCAAGCAAUAUUACGCCUC"
  LABEL_CLASS: "fulfilled"
- SEQUENCE_ENTRY: "UUCCAGCAAUAUUACGCCUC"
  LABEL_CLASS: "fulfilled"
- SEQUENCE_ENTRY: "AGUUAGCAAUAUUACGAGCG"
  LABEL_CLASS: "fulfilled"

---

# TEST_DETAILS: self-splicing fitness, log relative to wild type (ln ratio); higher = more splicing; Tetrahymena group I intron in knt gene, E. coli kanamycin selection, DiMSum; sequences stand for … in CUCUCU…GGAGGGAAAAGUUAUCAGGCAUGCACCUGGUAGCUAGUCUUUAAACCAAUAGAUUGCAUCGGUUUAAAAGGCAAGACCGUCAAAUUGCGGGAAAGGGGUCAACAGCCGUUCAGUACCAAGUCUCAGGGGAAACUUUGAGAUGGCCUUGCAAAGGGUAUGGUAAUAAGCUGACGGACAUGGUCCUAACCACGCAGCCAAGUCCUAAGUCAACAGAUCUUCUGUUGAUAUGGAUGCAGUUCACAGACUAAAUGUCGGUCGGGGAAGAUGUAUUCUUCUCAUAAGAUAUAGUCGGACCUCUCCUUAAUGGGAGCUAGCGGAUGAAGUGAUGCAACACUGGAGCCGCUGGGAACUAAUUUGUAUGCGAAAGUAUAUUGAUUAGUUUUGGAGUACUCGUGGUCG
# CONDITION_SET: 37 °C
# label = class 1 if self-splicing fitness (ln) >= -0.7 else class 0

- SEQUENCE_ENTRY: "AUGAAGCAAUAUUACGCCAG"
  LABEL_CLASS: "class 1"
- SEQUENCE_ENTRY: "CGGAAGCAAUAUUACGCUCG"
  LABEL_CLASS: "class 0"
- SEQUENCE_ENTRY: "CGGGAGCAAUAUUACGCAUG"
  LABEL_CLASS: "class 0"
- SEQUENCE_ENTRY: "UAUCAGCAAUAUUACGUCUA"
  LABEL_CLASS: "class 1"
- SEQUENCE_ENTRY: "UACAAGCAAUAUUACGUAGG"
  LABEL_CLASS: "class 0"
- SEQUENCE_ENTRY: "AUGCAGCAAUAUUACGGUGG"
  LABEL_CLASS: "class 0"
- SEQUENCE_ENTRY: "AAGUAGCAAUAUUACGGUCA"
  LABEL_CLASS: "class 1"
- SEQUENCE_ENTRY: "AACCAGCAAUAUUACGAUGA"
  LABEL_CLASS: "class 1"
- SEQUENCE_ENTRY: "UGGAAGCAAUAUUACGCUGU"
  LABEL_CLASS: "class 0"
- SEQUENCE_ENTRY: "UUAAAGCAAUAUUACGUCGG"
  LABEL_CLASS: "class 1"
- SEQUENCE_ENTRY: "ACCUAGCAAUAUUACGACUC"
  LABEL_CLASS: "class 1"
- SEQUENCE_ENTRY: "GUAGAGCAAUAUUACGGAGC"
  LABEL_CLASS: "class 1"
- SEQUENCE_ENTRY: "AAUAAGCAAUAUUACGGGGG"
  LABEL_CLASS: "class 0"
- SEQUENCE_ENTRY: "AACGAGCAAUAUUACGGUUC"
  LABEL_CLASS: "class 0"
- SEQUENCE_ENTRY: "UCACAGCAAUAUUACGCGAC"
  LABEL_CLASS: "class 0"
- SEQUENCE_ENTRY: "UAACAGCAAUAUUACGUUGG"
  LABEL_CLASS: "class 0"
- SEQUENCE_ENTRY: "CCUGAGCAAUAUUACGUGCC"
  LABEL_CLASS: "class 0"
- SEQUENCE_ENTRY: "AUGUAGCAAUAUUACGCUAC"
  LABEL_CLASS: "class 0"
- SEQUENCE_ENTRY: "UUCUAGCAAUAUUACGUCCG"
  LABEL_CLASS: "class 0"
- SEQUENCE_ENTRY: "CCUCAGCAAUAUUACGGACG"
  LABEL_CLASS: "class 1"
- SEQUENCE_ENTRY: "CGAUAGCAAUAUUACGGUUG"
  LABEL_CLASS: "class 0"
- SEQUENCE_ENTRY: "ACAUAGCAAUAUUACGCCGA"
  LABEL_CLASS: "class 0"
- SEQUENCE_ENTRY: "AGGGAGCAAUAUUACGGGCU"
  LABEL_CLASS: "class 0"
- SEQUENCE_ENTRY: "UCAUAGCAAUAUUACGGCAA"
  LABEL_CLASS: "class 0"
- SEQUENCE_ENTRY: "GAGGAGCAAUAUUACGCCAA"
  LABEL_CLASS: "class 0"
- SEQUENCE_ENTRY: "AUUAAGCAAUAUUACGCUCA"
  LABEL_CLASS: "class 1"
- SEQUENCE_ENTRY: "CGAUAGCAAUAUUACGCGGA"
  LABEL_CLASS: "class 1"
- SEQUENCE_ENTRY: "AGCGAGCAAUAUUACGCUGA"
  LABEL_CLASS: "class 0"
- SEQUENCE_ENTRY: "UAAAAGCAAUAUUACGAGUC"
  LABEL_CLASS: "class 0"
- SEQUENCE_ENTRY: "GGCCAGCAAUAUUACGGUCA"
  LABEL_CLASS: "class 1"
- SEQUENCE_ENTRY: "CUGUAGCAAUAUUACGGUUA"
  LABEL_CLASS: "class 0"
- SEQUENCE_ENTRY: "UAGAAGCAAUAUUACGGCGC"
  LABEL_CLASS: "class 1"
- SEQUENCE_ENTRY: "UGGAAGCAAUAUUACGUCCU"
  LABEL_CLASS: "class 1"
- SEQUENCE_ENTRY: "CGGUAGCAAUAUUACGAGAU"
  LABEL_CLASS: "class 0"
- SEQUENCE_ENTRY: "CUAUAGCAAUAUUACGAUGC"
  LABEL_CLASS: "class 0"
